Tested on: HOP-92 NSCLC
EXPERIMENTAL PROTOCOL: NCI-60 one-dose screen, 48 h
EXPERIMENTAL SETUP: 10 µM unless noted
Compounds without any hit were thinned out: in the full panel of roughly 83,000, 20% have a hit. Activity calls are given as the source filed them. Rule for the calls: active = growth percent below 10; inactive = the rest.
Allowed answers: TRUE (active), FALSE (inactive)

C[C@@H](Oc1cc(-c2cnn(C3CCNCC3)c2)cnc1N)c1c(Cl)ccc(F)c1Cl :: TRUE
O=c1sn(-c2cccc3ccccc23)c(=O)n1Cc1ccccc1 :: FALSE
O=C(NOC[C@H](O)CO)c1ccc(F)c(F)c1Nc1ccc(I)cc1F :: TRUE
Cn1ccnc1C(=O)/C=C/c1ccc(CC(=O)Nc2ccc(S(F)(F)(F)(F)F)cc2)cc1 :: TRUE

Now take the following molecule into account.
Can you look up the reported call for NC1(c2ccc(-c3nc4ccn5c(=O)[nH]nc5c4cc3-c3ccccc3)cc2)CCC1 for me?
FALSE

###

Reported growth values are given for each entry in this list.
System: HOP-92 NSCLC
EXPERIMENTAL PROTOCOL: NCI-60 one-dose screen, 48 h (100 = growth as untreated, 0 = no growth, -100 = all killed)
EXPERIMENTAL SETUP: 10 µM unless noted
This is part of a sample that, as a whole, favours compounds with a hit. Of some 83,000 tested, about 20% had one in any assay.
State just the number; it will be interpreted in %.

CNc1ncc2cc(-c3cc(NC(=O)NCCC(C)(C)C)c(F)cc3C)c(C)nc2n1 :: -44.3

Reported growth, molecule C[C@@H]1COCCN1c1cc(C2([S@](C)(=N)=O)CC2)nc(-c2ccnc3[nH]ccc23)n1 : ____
23

Entry Nc1ccc(S(=O)(=O)O)c2cc(S(=O)(=O)O)cc(O)c12 please
124

Entry CNC(=O)c1cc(Oc2ccc(NC(=O)Nc3cc(C(C)(C)C)nn3-c3ccc4ncccc4c3)c(F)c2)ccn1 please
-10.8

Entry CCN(CC)CCCC(C)Nc1cc(-c2ccc(C(F)(F)F)cc2)c(C#N)c2nc3ccccc3n12 (centres undefined) please
68.8

Entry CNC(=O)c1ccccc1Nc1nc(Nc2ccc3c(c2OC)CCC[C@H](N2CCN(CCO)CC2)C3)ncc1Cl please
-30.7

Entry NC[C@@](O)(c1ccc(Cl)cc1)c1ccc(-c2cn[nH]c2)cc1 please
-1.15

Entry Cc1ccc2oc(=O)cc(-c3cc(-c4cc5ccccc5oc4=O)nc(N)c3C#N)c2c1 please
40.1

Entry C=C1CC[C@@H]2[C@](C)(COC(C)=O)[C@H](OC(C)=O)CC[C@@]2(C)[C@@H]1C/C=C1/C(=O)OC[C@H]1OC(C)=O please
71.9

Entry CC(C)(C)CC(C)(C)Nc1c(-c2c(O)c3ccccc3oc2=O)nc2c(Cl)cc(C(F)(F)F)cn12 please
87.7

Entry CCc1ccc(/C=C/c2ccc(O)c3ncccc23)[n+](C)c1 please
83.6

Entry CCOC(=O)Sc1ncnc2nc[nH]c12 please
12.2

Entry Cc1cnc(NC(=O)Nc2cc(Br)c(C)cc2OC[C@@H]2CNCCO2)cn1 please
35

Entry CNC(=O)c1cc(Oc2ccc3nc(NC(=O)Nc4ccc(Cl)c(C(F)(F)F)c4)sc3c2)ccn1 please
-27.6

Entry CC(=O)CC1CCCC1c1ccc2ccccc2c1 (centres undefined) please
99.7

Entry CCOC(=O)c1sc(NC(=O)COc2ccc(/C=C3\Cc4ccc(Cl)cc4C3=O)cc2)nc1C please
92.5
